- Test system: Escherichia coli
- MEASUREMENT_DESCRIPTION: Radial diffusion assay
- Assay type: cell-based
- RECORDED_CONDITIONS: 4 µg peptide, variants compared with RGKAKCCK (Fig. 1E,F, Fig. 2A)
PROPERTY_MEASURED: antimicrobial activity against E. coli (diameter of inhibition zones)

RGKAKACK [octapeptide with Cys6 replaced by alanine]
increased
AGAAKCCK [variant lacking Arg1 and Lys3]
completely inactive
RGKAKCAK [octapeptide with Cys7 replaced by alanine]
increased
AGKAKCCK [variant lacking Arg1]
completely inactive
